These measurements were taken from patent US11179361B2.

- test-name: Stability of CEdG to acid-catalyzed depurination and sidechain isomerization
- recorded-conditions: 1 M acetic acid solution, pH 2.4, half-life for depurination, 1 M AcOH (pH 2.4), 37° C., HPLC
observation-type: half-life at 1.25 mM

Request: Find the recorded half-life at 1.25 mM belonging to CC(Nc1nc2c(ncn2[C@H]2C[C@H](O)[C@@H](CO)O2)c(=O)[nH]1)C(=O)O (single isomer, unassigned) [CEdG-A, N^2-(1-carboxyethyl)-2′-deoxyguanosine] and report it.
Response: ~12.5 h

---

- test-name: physchem
- recorded-conditions: buffer, pH 2.4, half-life for depurination
observation-type: half-life at 1.25 mM (h)
Number in h, nothing else.

Request: Find the recorded half-life at 1.25 mM belonging to `Nc1nc2c(ncn2[C@H]2C[C@H](O)[C@@H](CO)O2)c(=O)[nH]1` and report it.
Response: 7.33
